- assayedTarget: Mitogen-activated protein kinase 3 (Homo sapiens) (UniProt P27361)
- Sequence (P27361 whole entry): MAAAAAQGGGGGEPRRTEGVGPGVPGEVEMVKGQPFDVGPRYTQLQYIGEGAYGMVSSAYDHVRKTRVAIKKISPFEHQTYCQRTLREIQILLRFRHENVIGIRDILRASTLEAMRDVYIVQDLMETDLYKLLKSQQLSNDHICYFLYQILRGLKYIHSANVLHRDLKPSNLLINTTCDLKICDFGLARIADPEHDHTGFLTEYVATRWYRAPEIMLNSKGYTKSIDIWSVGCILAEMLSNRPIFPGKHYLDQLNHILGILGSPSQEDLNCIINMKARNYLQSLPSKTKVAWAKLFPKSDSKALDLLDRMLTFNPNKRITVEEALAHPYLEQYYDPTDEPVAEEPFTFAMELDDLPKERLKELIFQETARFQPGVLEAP
- methodSummary: Inhibition of MAPK3 (unknown origin) at 1 uM measured after 1 hr relative to control
Decide using inhibition: a value greater than or equal to 80% is YES, a smaller one is NO.

{"smilesStr": "C=CC(=O)N1CCC2(CC1)CNC(=O)c1cc(-c3ccnc(Nc4ccccc4OC(C)C)n3)[nH]c12", "className": "NO"}
{"smilesStr": "C=CC(=O)Nc1cc(Nc2nccc(-c3cn(C)c4ccccc34)n2)c(OC)cc1N(C)CCN(C)C", "className": "NO"}
{"smilesStr": "C=CC(=O)N1CCC2(CC1)CNC(=O)c1cc(-c3nc(Nc4ccccc4OC)ncc3C)[nH]c12", "className": "YES"}
{"smilesStr": "C=CC(=O)N1CCC2(CC1)CNC(=O)c1cc(-c3ccnc(Nc4ccccc4OC)n3)[nH]c12", "className": "NO"}

====

- assayedTarget: Serine/threonine-protein kinase PLK2 (Homo sapiens)
- methodSummary: Inhibition of PLK2 (unknown origin) at 1 uM measured after 1 hr relative to control

{"smilesStr": "C=CC(=O)N1CCC2(CC1)CNC(=O)c1cc(-c3ccnc(Nc4ccccc4OC(C)C)n3)[nH]c12", "unitAnnotation": "%", "inhibition": 12}
{"smilesStr": "C=CC(=O)Nc1cc(Nc2nccc(-c3cn(C)c4ccccc34)n2)c(OC)cc1N(C)CCN(C)C", "unitAnnotation": "%", "inhibition": 0}
{"smilesStr": "C=CC(=O)N1CCC2(CC1)CNC(=O)c1cc(-c3ccnc(Nc4ccccc4OC)n3)[nH]c12", "unitAnnotation": "%", "inhibition": 79}
{"smilesStr": "C=CC(=O)N1CCC2(CC1)CNC(=O)c1cc(-c3nc(Nc4ccccc4OC)ncc3C)[nH]c12", "unitAnnotation": "%", "inhibition": 86}
{"smilesStr": "C=CC(=O)N1CCC2(CC1)CNC(=O)c1cc(-c3ccnc(Nc4ccccc4OC)c3)[nH]c12", "unitAnnotation": "%", "inhibition": 7}

====

- assayedTarget: Glycogen synthase kinase-3 beta (Homo sapiens)
- methodSummary: Inhibition of GSK3B (unknown origin) at 1 uM measured after 1 hr relative to control
// label = 1 if inhibition is not less than 90%, otherwise -1

{"smilesStr": "C=CC(=O)N1CCC2(CC1)CNC(=O)c1cc(-c3ccnc(Nc4ccccc4OC)n3)[nH]c12", "className": -1}
{"smilesStr": "C=CC(=O)N1CCC2(CC1)CNC(=O)c1cc(-c3nc(Nc4ccccc4OC)ncc3C)[nH]c12", "className": 1}
{"smilesStr": "C=CC(=O)N1CCC2(CC1)CNC(=O)c1cc(-c3ccnc(Nc4ccccc4OC)c3)[nH]c12", "className": -1}
{"smilesStr": "C=CC(=O)Nc1cc(Nc2nccc(-c3cn(C)c4ccccc34)n2)c(OC)cc1N(C)CCN(C)C", "className": -1}

====

- assayedTarget: Receptor-type tyrosine-protein kinase FLT3 (Homo sapiens) (UniProt P36888)
- Sequence (P36888 whole entry): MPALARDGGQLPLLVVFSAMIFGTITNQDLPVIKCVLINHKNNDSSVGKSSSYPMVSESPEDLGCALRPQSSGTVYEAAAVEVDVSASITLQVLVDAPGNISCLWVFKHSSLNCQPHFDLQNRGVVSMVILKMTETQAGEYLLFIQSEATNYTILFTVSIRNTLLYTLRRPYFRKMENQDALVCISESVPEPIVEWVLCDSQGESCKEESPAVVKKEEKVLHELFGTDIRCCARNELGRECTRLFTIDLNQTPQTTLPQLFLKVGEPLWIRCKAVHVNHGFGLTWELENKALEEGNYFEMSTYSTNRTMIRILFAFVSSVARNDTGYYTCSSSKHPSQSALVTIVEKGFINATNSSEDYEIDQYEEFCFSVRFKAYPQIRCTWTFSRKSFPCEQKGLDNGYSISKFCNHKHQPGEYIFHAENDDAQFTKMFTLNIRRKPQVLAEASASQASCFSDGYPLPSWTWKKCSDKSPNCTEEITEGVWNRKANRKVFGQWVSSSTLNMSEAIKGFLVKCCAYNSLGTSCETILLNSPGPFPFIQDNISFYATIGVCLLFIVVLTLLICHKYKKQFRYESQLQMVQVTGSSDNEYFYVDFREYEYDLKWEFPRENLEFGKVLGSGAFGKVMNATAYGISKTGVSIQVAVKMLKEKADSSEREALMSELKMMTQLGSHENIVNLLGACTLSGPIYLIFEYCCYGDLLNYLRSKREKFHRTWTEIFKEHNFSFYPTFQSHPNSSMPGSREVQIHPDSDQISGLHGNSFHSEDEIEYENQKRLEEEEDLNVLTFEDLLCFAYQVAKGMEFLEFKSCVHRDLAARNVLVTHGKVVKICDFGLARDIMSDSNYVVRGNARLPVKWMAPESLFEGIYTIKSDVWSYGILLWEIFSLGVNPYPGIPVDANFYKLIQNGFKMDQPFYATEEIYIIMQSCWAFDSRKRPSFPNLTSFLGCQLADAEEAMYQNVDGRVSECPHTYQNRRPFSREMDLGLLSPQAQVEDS
- methodSummary: Inhibition of FLT3 (unknown origin) at 1 uM measured after 1 hr relative to control
Reported inhibition is given for each of the following compounds.

{"smilesStr": "C=CC(=O)N1CCC2(CC1)CNC(=O)c1cc(-c3nc(Nc4ccccc4OC)ncc3C)[nH]c12", "inhibition (%)": 100}
{"smilesStr": "C=CC(=O)N1CCC2(CC1)CNC(=O)c1cc(-c3ccnc(Nc4ccccc4OC)c3)[nH]c12", "inhibition (%)": 16}
{"smilesStr": "C=CC(=O)N1CCC2(CC1)CNC(=O)c1cc(-c3ccnc(Nc4ccccc4OC(C)C)n3)[nH]c12", "inhibition (%)": 22}
{"smilesStr": "C=CC(=O)Nc1cc(Nc2nccc(-c3cn(C)c4ccccc34)n2)c(OC)cc1N(C)CCN(C)C", "inhibition (%)": 57}
{"smilesStr": "C=CC(=O)N1CCC2(CC1)CNC(=O)c1cc(-c3ccnc(Nc4ccccc4OC)n3)[nH]c12", "inhibition (%)": 85}

====

- assayedTarget: Epidermal growth factor receptor (Homo sapiens, UniProt P00533, L858R/T790M)
- Sequence (P00533 25-1210 T790M/L858R limits assumed): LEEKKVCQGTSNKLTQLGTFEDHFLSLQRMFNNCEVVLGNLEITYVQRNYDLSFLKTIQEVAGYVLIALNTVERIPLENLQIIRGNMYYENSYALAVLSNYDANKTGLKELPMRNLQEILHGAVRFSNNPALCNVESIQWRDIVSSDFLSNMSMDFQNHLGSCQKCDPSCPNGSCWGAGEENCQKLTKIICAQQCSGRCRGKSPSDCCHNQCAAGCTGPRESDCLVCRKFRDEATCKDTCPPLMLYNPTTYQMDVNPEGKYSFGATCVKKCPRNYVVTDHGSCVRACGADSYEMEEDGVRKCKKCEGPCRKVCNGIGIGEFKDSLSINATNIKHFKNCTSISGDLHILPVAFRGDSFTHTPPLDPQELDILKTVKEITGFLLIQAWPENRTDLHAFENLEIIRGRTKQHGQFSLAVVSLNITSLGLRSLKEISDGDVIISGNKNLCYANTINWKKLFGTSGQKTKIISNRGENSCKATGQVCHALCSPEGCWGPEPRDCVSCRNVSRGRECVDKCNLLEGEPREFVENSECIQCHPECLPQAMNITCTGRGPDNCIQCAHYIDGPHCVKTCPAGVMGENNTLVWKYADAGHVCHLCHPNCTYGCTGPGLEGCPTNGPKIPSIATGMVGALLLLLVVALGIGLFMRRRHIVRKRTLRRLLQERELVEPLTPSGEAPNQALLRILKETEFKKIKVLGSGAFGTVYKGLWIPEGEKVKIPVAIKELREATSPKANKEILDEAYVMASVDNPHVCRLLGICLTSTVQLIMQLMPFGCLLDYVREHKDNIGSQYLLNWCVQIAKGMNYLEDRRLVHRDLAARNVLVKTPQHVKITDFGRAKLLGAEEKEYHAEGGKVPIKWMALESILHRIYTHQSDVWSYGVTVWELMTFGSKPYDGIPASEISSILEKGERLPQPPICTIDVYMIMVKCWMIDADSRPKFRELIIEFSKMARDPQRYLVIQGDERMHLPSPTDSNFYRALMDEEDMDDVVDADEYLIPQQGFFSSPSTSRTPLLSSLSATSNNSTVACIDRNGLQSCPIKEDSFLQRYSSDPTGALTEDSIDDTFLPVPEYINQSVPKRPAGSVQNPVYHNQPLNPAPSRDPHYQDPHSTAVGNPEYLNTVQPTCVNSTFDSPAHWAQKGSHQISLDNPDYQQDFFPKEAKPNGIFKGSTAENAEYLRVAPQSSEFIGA
- methodSummary: Inhibition of EGF-induced phosphorylation of EGFR T790M/L858R double mutant in human NCI-H1975 cells preincubated for 120 mins followed by EGF stimulation and measured after 10 mins by ELISA

{"smilesStr": "C=CC(=O)N1CCC2(CC1)CNC(=O)c1cc(-c3nc(Nc4ccccc4OC)ncc3C)[nH]c12", "EC50 [µM]": 0.012}
{"smilesStr": "C=CC(=O)N1CCC2(CC1)CNC(=O)c1cc(-c3ccnc(Nc4ccccc4OC)n3)[nH]c12", "EC50 [µM]": 0.04}
{"smilesStr": "C=CC(=O)N1CCC2(CC1)CNC(=O)c1cc(-c3ccnc(-c4cccc(OC)c4)n3)[nH]c12", "EC50 [µM]": 2.55}

====

- assayedTarget: Dual specificity tyrosine-phosphorylation-regulated kinase 1A (Homo sapiens) (UniProt Q13627)
- methodSummary: Inhibition of DYRK1A (unknown origin) at 1 uM measured after 1 hr relative to control
The compounds listed here are annotated with their inhibition.

{"smilesStr": "C=CC(=O)Nc1cc(Nc2nccc(-c3cn(C)c4ccccc34)n2)c(OC)cc1N(C)CCN(C)C", "unitAnnotation": "%", "inhibition": 0}
{"smilesStr": "C=CC(=O)N1CCC2(CC1)CNC(=O)c1cc(-c3ccnc(Nc4ccccc4OC)c3)[nH]c12", "unitAnnotation": "%", "inhibition": 46}
{"smilesStr": "C=CC(=O)N1CCC2(CC1)CNC(=O)c1cc(-c3ccnc(Nc4ccccc4OC(C)C)n3)[nH]c12", "unitAnnotation": "%", "inhibition": 70}
{"smilesStr": "C=CC(=O)N1CCC2(CC1)CNC(=O)c1cc(-c3nc(Nc4ccccc4OC)ncc3C)[nH]c12", "unitAnnotation": "%", "inhibition": 98}
{"smilesStr": "C=CC(=O)N1CCC2(CC1)CNC(=O)c1cc(-c3ccnc(Nc4ccccc4OC)n3)[nH]c12", "unitAnnotation": "%", "inhibition": 73}

====

- assayedTarget: Protein kinase C alpha type (Homo sapiens) (UniProt P17252)
- methodSummary: Inhibition of PRKCA (unknown origin) at 1 uM measured after 1 hr relative to control
Catalogue of molecules with associated inhibition

{"smilesStr": "C=CC(=O)N1CCC2(CC1)CNC(=O)c1cc(-c3ccnc(Nc4ccccc4OC(C)C)n3)[nH]c12", "assayedTarget": "Protein kinase C alpha type (Homo sapiens) (UniProt P17252)", "inhibition": "5%"}
{"smilesStr": "C=CC(=O)N1CCC2(CC1)CNC(=O)c1cc(-c3ccnc(Nc4ccccc4OC)n3)[nH]c12", "assayedTarget": "Protein kinase C alpha type (Homo sapiens) (UniProt P17252)", "inhibition": "30%"}
{"smilesStr": "C=CC(=O)N1CCC2(CC1)CNC(=O)c1cc(-c3nc(Nc4ccccc4OC)ncc3C)[nH]c12", "assayedTarget": "Protein kinase C alpha type (Homo sapiens) (UniProt P17252)", "inhibition": "61%"}

The measured values listed here are drawn from ChEMBL document CHEMBL5029169.
